Where do the numbers come from? From patent US10221129B2.

CC50 at 4 days overview
- assay_text: Compound cytotoxicity, XTT-based colorimetric assay
- Format: cell-based
- run_parameters: human, uninfected MT2 cells, day 4, XTT

# example entries with known answers
| compound | CC50 at 4 days |
| --- | --- |
| CCOc1ccc(N(CC)C(=O)[C@H](Cc2ccccc2)NC(=O)NS(=O)(=O)n2ccc3ccccc32)cc1 | > 33.3 µM |
| COc1cccc(N(C)S(=O)(=O)NC(=O)N[C@@H](Cc2cc(F)cc(F)c2)C(=O)N(C)c2ccc3scnc3c2)c1 | > 33.3 µM |
| CCOc1ccc(N(CC)C(=O)[C@H](Cc2ccccc2)NC(=O)NS(=O)(=O)N2CCc3cccnc32)cc1 | > 33.3 µM |
| CCc1ccc(N(C)C(=O)[C@H](Cc2cc(F)cc(F)c2)NC(=O)NS(=O)(=O)N(C)C)cn1 | > 100 µM |

Note to self: CC50 at 4 days recorded for COc1ccc(N(C)C(=O)[C@H](Cc2ccccc2)NC(=O)NS(=O)(=O)NC(C)c2cccc(C)n2)cc1 (stereo partly drawn) was > 100 µM

Note to self: CC50 at 4 days recorded for COc1ccc(N(C)C(=O)[C@H](Cc2cc(F)cc(F)c2)NC(=O)NS(=O)(=O)N2CCc3cccnc32)cn1 was > 100 µM

Note to self: CC50 at 4 days recorded for COc1ccc(N(C)C(=O)[C@H](Cc2ccccc2)NC(=O)NS(=O)(=O)Nc2ccc(Cl)c(Cl)c2)cc1 was > 33.3 µM

Note to self: CC50 at 4 days recorded for COc1ccc(N(C)C(=O)[C@H](Cc2ccccc2)NC(=O)NS(=O)(=O)Nc2cccc(F)c2)cc1 was > 100 µM

Note to self: CC50 at 4 days recorded for COc1ccc(N(C)C(=O)[C@H](Cc2ccccc2)NC(=O)NS(=O)(=O)Nc2ccc3[nH]cnc3c2)cc1 was > 100 µM
